These measurements were taken from the nanobody polyreactivity screen of Harvey et al. (2022).

# ASSAY_PROCEDURE: yeast display, Sf9 membrane polyspecificity reagent, FACS + sequencing; frameworks hold sequencing errors
MEASURED_QUANTITY: polyreactivity (PSR sort gate)

See these solved cases before continuing.
CHAIN_SEQUENCE | polyreactivity (PSR sort gate)
QVHLVESGGGLVQAGGSLRLSCAASGRIFSSNAMGWYRQAPGKERELVAAISWIVGRTYYADSVKGRFTISRDNAKNTVYLQMNRLKPEDTAVYYCAKGSYYGRKRGWGYYYWGQGTQVTVSS | high polyreactivity
QVQLVESGGGLVQAGGSLRLSCAASGRTIGVYAMGWYRQAPGKERELVAAISWSGGTTYYADSVKGRFTISRDNAKNTVYLQMNSLKPEDTAVYYCAADSYTEVEYWGQGTQVTVSS | low polyreactivity
QVQLVESGGGLVQAGGSLRLSCAASGSIFRDNAMGWYRQAPGKERELVASIRSSGGRTYYADSVKGRFTISRDNANNTVYLQMNSLKPEDTAVYYCAADWIYAPWYYQESVEYYYWGQGTQVTVSS | low polyreactivity
QVQLVESGGGLVQAGGSLRLSCAASGRTFYYYAMGWYRQAPGKERELVASITYYADSVKGRFTISRDNAKNTVYLQMNSLKPEDTAVYYCAAEHKYRYDYWGQGTQVTVSS | low polyreactivity
QVQLVESGRGLVQAGGSRRLSCAASGSIITWNAMARYRQAPGKERELFAAIDWDGGSTYYADSVKGRFTISRDNAKNTVYFQMNSLKPEDTAVYYCAATYGWYTGRYPSGHYYYWGQGTQVTVSS | low polyreactivity

Exam item: Consider the sequence shown here: QVQLVESGGGLVQAGGSLRLSCAASGFTFAGYAMGWYRQAPGKEMELVAAINYRGVRTYYADSVKGRFTISRDNSKNTVYLQMNSLIPEDTAVYYCAALPFLPGGGYVIHRFYYWGQGSQVTVSS What is its recorded polyreactivity (PSR sort gate)?
Marked response: high polyreactivity

----------
# ASSAY_PROCEDURE: yeast display, Sf9 membrane polyspecificity reagent, FACS + sequencing; frameworks hold sequencing errors
MEASURED_QUANTITY: polyreactivity (PSR sort gate)

CHAIN_SEQUENCE | polyreactivity (PSR sort gate)
QVQLVESGGGLVQAGGSVRLSCAASGSIFGWYAMGWYRQGPGKEREWVATITDRGGRTYYADSVKGRFTISRDNAKNTVYLQMNSLKPEDTAVYYCAADDCPFEAEYDSWGQGTQVTVSS | low polyreactivity
QVQLVESGGGLVQAGGSLRLSCAASGSIFVRNAMGWYRQAPGKERELVATITRRGGRTYYADSVKGRFTISRDNAKNTVYLQMNSLKPEDTAVYYCAARVRTATRRFTSYYWGQGTQVTVSS | high polyreactivity
QVQLVESGGGLVQAGGSLRLSCAASGSTFNGYAMGWYRQAPGKERELVADISRGDRTNYADSVKGRFTISRDNAKNTVYLQMKSLKREDTAVYYCAKDWLTDDPDKDPSVEYDYWGQGTQVTVSS | low polyreactivity
QVQLVESGGGLVQAGGSLRLSSAASGRIFFHNAMGWCRQAPGKDRELVAAIRSSTGSTYYADSVKGRFTISRDNAKNTVYLQMNSLKPEDNAVYYCAARSYDKYSRRVWGLGYWGQGTQVTVSS | high polyreactivity
QVQLVESGGGLVQAGGSLRLSCAASGRIFTHNAMGWYRQAPGKERELVAAISYSGVSTYYADSVKGRFTISRDNAKNTVYLQMNSLKPEDTAVYYCAARSRSWRQRYGDFDYWGQGTQVTVSS | low polyreactivity

Exam item: Consider the sequence shown here: QVQLVESGGGLVQAGGSLRLSCAASGRIFRYYTMGWYRQEPGKERELVAAITGSGGSTYYADSVKGRFTISRDNAKTTVYLQMNSLKPEDTAVYYCAARGYLDMGYWGQGTQVTVSS What is its recorded polyreactivity (PSR sort gate)?
Marked response: high polyreactivity

Exam item: Now this one: QVQLVESGGGLVQAGGSLRLSCAASGRTFGKYAMGSYTQAPGKETELVAAISSSGGSTYYADSVKGRFTISRDNAKNTVYLQMNSVKPEDTAVYYCGARWSYRDDYWGQGTQVTVSS
Marked response: high polyreactivity

Exam item: Now this one: QVQLVESGGGLVQAGGSLRLSCAASGLIFKYKAMGWYRQAPGKERELVAAISTSGGSTYYADSVKGRFTISRDNAKNTVYLQMNSLKPEDTAVYYCNAVAGRPFRYYYWGQGTQVTVSS
Marked response: high polyreactivity

Exam item: Now this one: QVQLVESGGGLVQAGGSLRLSCAASGRTLFPNVMGWYRQAPGKERELVAAIRGTGGSTYADSVKGRVTISRDNAKNTVYLQMNSLKPEDTAVYYCAAGYPVTRRTIRFDYWGQGTQVTVSS
Marked response: high polyreactivity

Exam item: Now this one: QVQLVESGGGLVQAGGSLRLSCAASGRIFGWYAMGWYRQAPGKERELVADIRYRGGSTYYADSVKGRFTISRDNAKNTVYLQMHSLKPEDTAVYYCAALGFVPVPYDYWGQGTQVNVSS
Marked response: low polyreactivity

Exam item: Now this one: QVQLVESGGGLVQAGGSLRLSCAASGRTFRTYVMGWYRRAPGKEREFVAGITWSSGSTRYADSVKGRFTISRDNAKNTVYLQMNSLKPEDTAVYYCAAKRWPGTDGYWGQGTQVTVSS
Marked response: high polyreactivity
